Target: T1, Full-length human HER3 extracellular domain (ECD) (human, UniProt P21860 20-643)
T1 construct: also called human HER3 ECD; HER-3 ECD full length
T1 sequence (P21860 20-643): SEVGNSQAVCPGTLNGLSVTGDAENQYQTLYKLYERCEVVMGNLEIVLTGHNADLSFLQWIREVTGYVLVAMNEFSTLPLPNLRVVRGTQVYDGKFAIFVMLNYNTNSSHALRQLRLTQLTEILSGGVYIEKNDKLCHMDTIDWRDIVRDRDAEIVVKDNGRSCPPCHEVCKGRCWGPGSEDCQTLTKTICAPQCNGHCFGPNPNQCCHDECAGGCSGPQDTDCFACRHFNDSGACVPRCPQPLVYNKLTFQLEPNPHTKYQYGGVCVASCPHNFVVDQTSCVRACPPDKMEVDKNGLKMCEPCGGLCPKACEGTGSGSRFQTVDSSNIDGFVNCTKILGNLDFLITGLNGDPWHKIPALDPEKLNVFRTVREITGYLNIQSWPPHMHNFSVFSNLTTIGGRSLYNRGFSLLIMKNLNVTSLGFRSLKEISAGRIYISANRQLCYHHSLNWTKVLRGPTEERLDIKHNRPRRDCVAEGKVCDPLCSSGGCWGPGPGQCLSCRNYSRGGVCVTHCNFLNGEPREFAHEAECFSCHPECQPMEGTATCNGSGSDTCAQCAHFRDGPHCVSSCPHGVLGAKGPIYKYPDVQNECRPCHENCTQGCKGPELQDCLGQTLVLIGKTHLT
Test: BIACORE 3000 SPR, mAb captured by anti-human Fc, ECD as analyte, 25 C
pKd: −log10 of the molar value.
Below is a list of entries, each paired with its recorded pKd value.
measured-property: pKd

{"binder": "1D9 H3L2 RR antibody (antibody, V domains shown, Humanized RR variant) VH: QVQLVQSGAEVKKPGASVKVSCKASGYTFTSYWMHWVRQAPGQGLEWMGVIDPSDGYSHYNQKFKGKVTMTRDTSISTAYMELSRLRSDDTAVYYCARGLAGTLDYWGQGTTVTVSS VL: DIQMTQSPSSLSASVGDRVTITCRSSQSIVHSSGNTYLQWFQQKPGKAPKLLIYKVSNRFSGVPSRFSGSGSGTDFTLTISSLQPEDFAVYYCFQGSHVPWTFGQGTKLEIKR", "experimental-result": 7.23}
{"binder": "1D9 H6L9 RR antibody (antibody, V domains shown, Humanized RR variant) VH: QVQLVQSGAEVKKPGASVKVSCKASGYTFTSYWMHWVRQAPGQGLEWMGVIDPSDGYSHYNQKFKGKVTLTVDTSISTAYMELSRLRSDDTAVYYCAGGLAGTLDYWGQGTTVTVSS VL: DVVMTQSPLSLPVTLGQPASISCRSSQSIVHSSGNTYLQWFQQRPGQSPKLLISKVSNRFSGVPDRFSGSGSGTDFTLKISRVEAEDVGVYYCFQGSHVPWTFGQGTKLEIKR", "experimental-result": 8.47}
{"binder": "1D9 H6L0 RR antibody (antibody, V domains shown, Humanized RR variant) VH: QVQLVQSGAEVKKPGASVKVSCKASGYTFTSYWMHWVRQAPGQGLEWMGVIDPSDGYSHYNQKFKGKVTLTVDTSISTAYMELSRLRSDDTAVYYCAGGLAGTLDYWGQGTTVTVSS VL: DIQMTQSPSSLSASVGDRVTITCRSSQSIVHSSGNTYLQWYQQKPGKAPKLLIYKVSNRFSGVPSRFSGSGSGTDFTLTISSLQPEDFAVYYCFQGSHVPWTFGQGTKLEIKR", "experimental-result": 8.12}
{"binder": "15D5 H2L1 antibody (antibody, V domains shown, Humanized 15D5 variant) VH: QVQLVQSGAEVKKPGASVKVSCKASGYTFTDYNMNWVKQAPGQGLEWIGGINPNYGTTVYNQKFKGKATLTVDQSISTAYMELSRLRSDDTAVYYCARMTTIVPFDYWGQGTTVTVSS VL: DIQMTQSPSSLSASVGDRVTITCRASQDISNYLNWYQQKPGKAPKLLIYYTSTLHSGVPSRFSGSGSGTDYTFTISSLQPEDIATYYCQQGYTLPWTFGGGTKVEIKR", "experimental-result": 8.06}
